study.system: Human factor XIa (human), P03951
measurement.description: enzyme inhibition assay
condition.notes: remark: other sources report otherwise
Numbered stars: 1 amine (or outer) side, 2 acyl side, 3 side chain; on linkers, the order of the positions; unused ones are H or OH. Bridge positions count the residues as written; N and C are the ends. Ends that are not written are not given here. TBMB = c1c(C[*:1])cc(C[*:3])cc1C[*:2]
measured.parameter: Ki

Measured Ki of ACTYPYKCLHQNLCA (linker 2-8-14 via TBMB) [2A10] : 75 µM
